Molecular target: KDR (human, UniProt P35968 20-1356)
Sequence (P35968 20-1356): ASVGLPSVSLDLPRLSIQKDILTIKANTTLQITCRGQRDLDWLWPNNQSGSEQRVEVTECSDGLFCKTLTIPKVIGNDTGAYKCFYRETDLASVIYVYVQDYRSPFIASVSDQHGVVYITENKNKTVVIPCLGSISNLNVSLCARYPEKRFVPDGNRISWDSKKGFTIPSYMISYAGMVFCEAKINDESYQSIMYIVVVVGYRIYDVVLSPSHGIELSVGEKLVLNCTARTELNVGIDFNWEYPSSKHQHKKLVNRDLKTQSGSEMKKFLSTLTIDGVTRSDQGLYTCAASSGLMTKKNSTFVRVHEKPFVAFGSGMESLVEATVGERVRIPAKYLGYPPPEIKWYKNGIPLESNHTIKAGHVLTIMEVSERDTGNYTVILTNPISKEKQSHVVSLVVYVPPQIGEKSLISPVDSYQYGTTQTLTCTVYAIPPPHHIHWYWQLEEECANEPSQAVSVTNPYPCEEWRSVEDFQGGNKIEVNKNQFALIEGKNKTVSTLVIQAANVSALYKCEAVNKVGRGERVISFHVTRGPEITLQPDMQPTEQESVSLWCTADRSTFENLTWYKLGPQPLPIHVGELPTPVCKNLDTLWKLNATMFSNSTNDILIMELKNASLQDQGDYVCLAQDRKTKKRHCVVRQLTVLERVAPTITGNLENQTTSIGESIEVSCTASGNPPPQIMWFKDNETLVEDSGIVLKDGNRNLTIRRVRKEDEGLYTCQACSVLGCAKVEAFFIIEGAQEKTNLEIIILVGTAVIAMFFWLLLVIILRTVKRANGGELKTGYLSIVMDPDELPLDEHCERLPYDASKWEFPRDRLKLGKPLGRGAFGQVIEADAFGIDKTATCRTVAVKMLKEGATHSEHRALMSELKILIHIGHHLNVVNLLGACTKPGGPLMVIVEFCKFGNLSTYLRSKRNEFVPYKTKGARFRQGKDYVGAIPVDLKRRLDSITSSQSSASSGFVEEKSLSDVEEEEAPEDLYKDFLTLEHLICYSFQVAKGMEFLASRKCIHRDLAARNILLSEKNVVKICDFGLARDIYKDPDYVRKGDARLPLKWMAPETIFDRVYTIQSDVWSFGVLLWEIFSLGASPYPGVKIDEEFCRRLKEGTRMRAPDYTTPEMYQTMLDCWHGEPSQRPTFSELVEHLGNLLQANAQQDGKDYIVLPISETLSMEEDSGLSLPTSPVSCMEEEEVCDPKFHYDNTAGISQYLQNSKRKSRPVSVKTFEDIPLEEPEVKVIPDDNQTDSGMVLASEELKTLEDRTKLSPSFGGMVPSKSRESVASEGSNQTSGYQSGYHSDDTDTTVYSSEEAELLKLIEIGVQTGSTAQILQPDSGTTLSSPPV
Assay: cell-based or functional assay
READOUT_NAME: Activity at 133 nM (% Inhibition), 1-hour Pre-incubation at 4° C., N = 2 (%)
# output: bare number, implied unit %

Sample records with Activity at 133 nM (% Inhibition), 1-hour Pre-incubation at 4° C., N = 2:
BINDER | MEAS_VALUE
27A3 (antibody, V domains shown) VH: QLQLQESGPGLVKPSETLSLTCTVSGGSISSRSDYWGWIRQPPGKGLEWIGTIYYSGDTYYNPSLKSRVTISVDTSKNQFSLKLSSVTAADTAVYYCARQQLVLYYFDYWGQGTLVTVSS VL: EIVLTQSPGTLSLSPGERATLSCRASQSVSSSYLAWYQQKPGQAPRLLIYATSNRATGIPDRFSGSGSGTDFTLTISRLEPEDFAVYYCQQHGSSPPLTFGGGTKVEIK | 72
29H3 (antibody, V domains shown) VH: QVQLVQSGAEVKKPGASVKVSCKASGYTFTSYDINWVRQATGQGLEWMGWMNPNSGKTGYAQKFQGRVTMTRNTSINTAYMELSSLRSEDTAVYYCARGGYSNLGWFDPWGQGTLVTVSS VL: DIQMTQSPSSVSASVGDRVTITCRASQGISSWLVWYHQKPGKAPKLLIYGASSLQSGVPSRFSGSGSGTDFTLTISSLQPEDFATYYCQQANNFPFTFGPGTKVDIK | 55

Below: the item to evaluate.
Please give the measured Activity at 133 nM (% Inhibition), 1-hour Pre-incubation at 4° C., N = 2 for this binder: 33D5 (antibody, V domains shown) VH: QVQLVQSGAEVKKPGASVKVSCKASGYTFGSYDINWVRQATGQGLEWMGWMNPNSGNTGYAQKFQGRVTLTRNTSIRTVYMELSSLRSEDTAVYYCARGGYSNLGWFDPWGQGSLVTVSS VL: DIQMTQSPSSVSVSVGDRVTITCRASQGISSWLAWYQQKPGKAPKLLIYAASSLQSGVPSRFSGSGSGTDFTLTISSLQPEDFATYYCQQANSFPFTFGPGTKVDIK
60
